TESTED TARGET: T1, human epidermal growth factor receptor 2 (HER2) (human, UniProt P04626 23-1255)
T1 construct: whole, on cells; One entry for endogenous HER2 on tumor cell lines and for the fully human construct hu-HER2 on CHO-S cells; also called ErbB-2; hu-HER2
METHOD: flow cytometry on A431 cells (low HER2), PE-goat anti-human IgG, MFI; EC50 by non-linear regression (Example 12)
REPORTED PROPERTY: EC50 (µg/mL)
Numeric answer only, unit µg/mL assumed.

BINDER	UNIT TAG	ENDPOINT RESULT
HER2 HuMab 084 (antibody, V domains shown, also called PC1014-084) VH: QVQLVQSGAEVKKPGSSVKVSCKASGGTFRTYAINWVRQAPGQGLEWMGRINTVLGIVNHAQKFQGRVTITADKSTNTAYMELNSLRSEDTAVYYCAREKGVDYYYGIEVWGQGTTVTVSS VL: DIQMTQSPSSVSASVGDRVTITCRASQGISSWLAWYQHKPGKAPKLLIYVASTLQSGVPSRFSGSGSGTDFTLTISSLQPEDFATYYCQQANSFPLTFGGGTKVEIK	µg/mL	0.498
HER2 HuMab 050 (antibody, V domains shown, also called PC1014-050) VH: EVQLLESGGGLVQPGGSLRLSCAASGFTFSSYAMNWVRQAPGKGLEWVSAISGRGGTTYYADSVKGRFTISRDNSKNTLYLQMSSLRAEDTAVYYCAKARANWDYFDYWGQGTLVTVSS VL: DIQMTQSPSSVSASVGDRVTITCRASQGISSWLAWYQHKPGKAPKLLIYAASILQSGVPSRFSGSGSGTDFTLTISSLQPEDFATYYCQQANSFPITFGQGTRLEIK	µg/mL	1.14

Complete the entry with EC50 for HER2 HuMab 127 (antibody, V domains shown) VH: EVQLVQSGAEVKKPGESLTISCKGSGYSFSIYWIGWVRQMPGKGLEWMGIIFPGDSDIRYSPSFQGQVTISADKSISTAYLQWSSLKASDTAMYYCARQPGDWSPRHWYFDLWGRGTLVTVSS VL: VIWMTQSPSLLSASTGDRVTISCRMSQGISSYLAWYQQKPGKAPELLIYAASTLQSGVPSRFSGSGSGTDFTLTISYLQSEDFATYYCQQYYSFPLTFGGGTKVEIK
0.27

For the binder HER2 HuMab 091 (antibody, V domains shown, also called PC1014-091) VH: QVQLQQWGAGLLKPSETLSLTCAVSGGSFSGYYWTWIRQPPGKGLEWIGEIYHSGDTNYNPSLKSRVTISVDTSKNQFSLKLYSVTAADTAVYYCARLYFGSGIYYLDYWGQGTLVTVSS VL: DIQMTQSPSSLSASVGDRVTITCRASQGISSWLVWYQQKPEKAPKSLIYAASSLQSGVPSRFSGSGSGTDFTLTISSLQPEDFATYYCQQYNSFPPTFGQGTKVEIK , give its reported EC50.
0.633

Report EC50, nothing else, for this binder: HER2 HuMab 098 (antibody, V domains shown, also called PC1014-098; TH1014-098) VH: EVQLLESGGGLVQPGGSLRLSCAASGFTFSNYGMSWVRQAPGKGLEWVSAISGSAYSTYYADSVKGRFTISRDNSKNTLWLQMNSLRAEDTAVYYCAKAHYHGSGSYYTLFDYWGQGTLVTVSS VL: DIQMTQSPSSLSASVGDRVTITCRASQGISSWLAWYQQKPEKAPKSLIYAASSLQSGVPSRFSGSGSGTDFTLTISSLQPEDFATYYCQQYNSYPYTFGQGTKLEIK
0.101

Determine from records and report EC50 for HER2 HuMab 025 (antibody, V domains shown, also called PC1014-025; TH1014-025) VH: QVQLQQWGAGLLKPSETLSLTCAVYGGSFSDYYWNWIRQPPGKGLEWIGEIHHSGSTNYNPSLKSRVTISVDTSKNQFSLKLSSVTAADTAVYYCARGYYDSGVYYFDYWAQGTLVTVSS VL: DIQMTQSPSSLSASVGDRVTITCRASQGISRWLAWYQQKPEKAPKSLIYAASSLRSGVPSRFSGSGSGTDFTLTISSLQPEDFATYYCQQYNSYPITFGQGTRLEIK
0.128
